target: serotonin reuptake (5HT uptake) (Rattus norvegicus); construct: These vesicular particles were isolated from the hypothalamus of male rats' brains for 5HT uptake; from tissue; host or cells: rat brain synaptosomes (P2 fraction; cerebral cortex / hypothalamus of male rats); assay: Serotonin reuptake inhibition (5HT uptake inhibition) in rat brain synaptosomes; format: biochemical; details: synaptosomes from male rats' brains
Sequence (P31652 whole entry): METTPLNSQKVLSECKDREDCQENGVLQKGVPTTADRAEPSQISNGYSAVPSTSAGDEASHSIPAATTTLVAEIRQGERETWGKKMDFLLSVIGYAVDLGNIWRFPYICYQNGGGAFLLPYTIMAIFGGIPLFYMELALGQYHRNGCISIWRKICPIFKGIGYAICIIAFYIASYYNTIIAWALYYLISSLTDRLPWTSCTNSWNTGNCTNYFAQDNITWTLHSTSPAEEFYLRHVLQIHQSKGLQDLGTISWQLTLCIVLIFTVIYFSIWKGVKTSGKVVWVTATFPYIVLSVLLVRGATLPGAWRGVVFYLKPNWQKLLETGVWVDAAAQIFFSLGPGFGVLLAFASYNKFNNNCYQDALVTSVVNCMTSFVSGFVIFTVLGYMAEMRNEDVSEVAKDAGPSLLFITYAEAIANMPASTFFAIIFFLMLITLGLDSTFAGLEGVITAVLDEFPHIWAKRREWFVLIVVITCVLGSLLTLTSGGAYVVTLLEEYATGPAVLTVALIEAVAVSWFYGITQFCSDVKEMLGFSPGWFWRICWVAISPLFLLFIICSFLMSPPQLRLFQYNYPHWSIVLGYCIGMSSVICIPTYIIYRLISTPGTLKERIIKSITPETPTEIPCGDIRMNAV
Each item that follows carries a reported inhibition at 10 µM.

# compound, inhibition at 10 µM / %
data = [
    ("N#Cc1ccc(Cn2cc(C3CCN(C(=O)c4ccc5nonc5c4)C3)c3ccccc32)cc1 (stereo not shown)", 57),
    ("COc1ccc(OC)c(CC(=O)N2CCC(c3cn(CC(=O)N(C)C)c4ccccc34)C2)c1 (stereo not shown)", 86),
    ("CN(C)C(=O)Cn1cc(C2CCN(S(=O)(=O)Cc3ccccc3)C2)c2ccccc21 (stereo not shown)", 47),
    ("Cc1ccc(S(=O)(=O)NC(Cc2ccccc2)C(=O)N2CCC(c3cn(CC(=O)N(C)C)c4ccccc34)C2)cc1 (stereo not shown)", 63),
    ("CCn1cc(C2CCN(C(=O)CCc3ccccc3)C2)c2ccccc21 (stereo not shown)", 68),
    ("CCn1cc(C2CCN(CC(=O)Nc3scc(C)c3C#N)C2)c2ccccc21 (stereo not shown)", 79),
    ("CCCCC(=O)N1CCC(c2cn(CC(=O)N(CC)CC)c3ccccc23)C1 (stereo not shown)", 49),
]

----------
test system: binding site 2 of the sodium channel (batrachotoxin (BTX) binding site); assay: Binding test on the sodium channel, binding site 2 (BTX bond), [3H]-batrachotoxinin A20 α-benzoate as ligand; design: species or system rat; details: 10 μM; rat cerebrocortex synaptosomes; ligand 10 nM; 25° C., 120 min

# compound, system_name, BTX bond, % inhibition [10 μM] [%]
measured = [
    ("CC(Oc1ccccc1)C(=O)N1CCC(c2cn(Cc3ccc(C#N)cc3)c3ccccc23)C1 (centres unmarked) [Compound 13]", "binding site 2 of the sodium channel (batrachotoxin (BTX) binding site)", 82),
    ("Cn1cc(C2CCN(C(=O)c3ccc(-c4ccccc4)cc3)C2)c2ccccc21 (centres unmarked) [Compound 45]", "binding site 2 of the sodium channel (batrachotoxin (BTX) binding site)", 82),
    ("CCn1cc(C2CCN(C(=O)c3ccc(Cl)c(Cl)c3)C2)c2ccccc21 (centres unmarked) [Compound 15]", "binding site 2 of the sodium channel (batrachotoxin (BTX) binding site)", 80),
    ("COc1cccc(Cn2cc(C3CCN(C(=O)c4ccc(C)cc4)C3)c3ccccc32)c1 (centres unmarked) [Compound 43]", "binding site 2 of the sodium channel (batrachotoxin (BTX) binding site)", 92),
    ("CCn1cc(C2CCN(C(=O)c3cccc(C)c3C)C2)c2ccccc21 (centres unmarked) [Compound 10]", "binding site 2 of the sodium channel (batrachotoxin (BTX) binding site)", 83),
    ("Cc1ccc(F)c(C(=O)N2CCC(c3cn(Cc4ccc(C#N)cc4)c4ccccc34)C2)c1Cl (centres unmarked) [Compound 31]", "binding site 2 of the sodium channel (batrachotoxin (BTX) binding site)", 92),
    ("CCn1cc(C2CCN(C(=O)c3cc(C(F)(F)F)ccc3Cl)C2)c2ccccc21 (centres unmarked) [Compound 38]", "binding site 2 of the sodium channel (batrachotoxin (BTX) binding site)", 89),
    ("CCOc1ccccc1C(=O)N1CCC(c2cn(Cc3cccc(OC)c3)c3ccccc23)C1 (centres unmarked) [Compound 8]", "binding site 2 of the sodium channel (batrachotoxin (BTX) binding site)", 88),
]
